# Test system: OVCAR-8 ovarian
# Assay comment: NCI-60 one-dose screen, 48 h (100 = growth as untreated, 0 = no growth, -100 = all killed)
# Condition description: 10 µM unless noted
The panel holds about 83,000 compounds, 20% with a hit somewhere; the sample as a whole holds those more often.
Please note: growth exactly at 10% is Criterion not met. Only values below 10% get Criterion met.

{"Smiles code": "Cc1ccc(C(=O)N(CCCN)[C@@H](c2nc3cc(Cl)ccc3c(=O)n2Cc2ccccc2)C(C)C)cc1", "Subject of test": "OVCAR-8 ovarian", "Class assignment": "Criterion met"}
{"Smiles code": "COc1ccc(-c2ccccc2)cc1-c1c(Nc2cc(Cl)cc(Cl)c2O)c(=O)c1=O", "Subject of test": "OVCAR-8 ovarian", "Class assignment": "Criterion not met"}
{"Smiles code": "Nc1ncc(-c2ccc3ncnc(N4CCc5ccc(Cl)cc54)c3c2)cc1C(F)(F)F", "Subject of test": "OVCAR-8 ovarian", "Class assignment": "Criterion not met"}
{"Smiles code": "Nn1c(-c2ccc(Cl)cc2)nc2c(-c3ccc(Cl)cc3)nc3ccc(Cl)cc3c2c1=O", "Subject of test": "OVCAR-8 ovarian", "Class assignment": "Criterion not met"}
{"Smiles code": "C=C1C(=O)O[C@H]2[C@H]1CC/C(COC(=O)NCCCCNC(=O)OC/C1=C/CC[C@@]3(C)O[C@H]3[C@H]3OC(=O)C(=C)[C@@H]3CC1)=C\\CC[C@@]1(C)O[C@@H]21", "Subject of test": "OVCAR-8 ovarian", "Class assignment": "Criterion not met"}
{"Smiles code": "O=c1ccc2nc(-c3ccccn3)nn(-c3ccccc3)c-2c1", "Subject of test": "OVCAR-8 ovarian", "Class assignment": "Criterion not met"}
{"Smiles code": "COc1cc(Nc2nc3ccccc3cc2C(=O)Nc2ccc(F)c(F)c2)cc(OC)c1OC", "Subject of test": "OVCAR-8 ovarian", "Class assignment": "Criterion not met"}
{"Smiles code": "[2H]C([2H])([2H])Oc1cc(F)ccc1/C=C/C(=O)/C=C(/C=C/c1ccc(F)cc1OC([2H])([2H])[2H])OB(F)F", "Subject of test": "OVCAR-8 ovarian", "Class assignment": "Criterion met"}
